Biological target: T1, human GIP receptor (human, UniProt P48546 22-466)
T1 sequence (looked up): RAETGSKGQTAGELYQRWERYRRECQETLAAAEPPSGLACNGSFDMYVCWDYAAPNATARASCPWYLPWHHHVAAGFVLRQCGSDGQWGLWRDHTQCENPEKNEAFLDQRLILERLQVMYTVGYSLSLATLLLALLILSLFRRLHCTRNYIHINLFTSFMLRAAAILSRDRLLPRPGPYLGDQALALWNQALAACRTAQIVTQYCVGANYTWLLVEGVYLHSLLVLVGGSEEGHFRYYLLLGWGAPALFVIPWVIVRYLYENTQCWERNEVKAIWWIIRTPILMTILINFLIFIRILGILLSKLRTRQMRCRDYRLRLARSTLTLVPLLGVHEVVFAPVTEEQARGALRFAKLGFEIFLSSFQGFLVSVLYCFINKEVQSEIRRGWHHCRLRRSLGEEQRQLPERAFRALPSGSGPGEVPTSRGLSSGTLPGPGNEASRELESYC
Assay: cell-based or functional assay
Starred links: 1 amine or outer side, 2 acyl side, 3 side chain; linkers in the order of their positions; H or OH if unused. Non-standard residues stand in square brackets, D forms with d. Groups on a side chain read outwards from the residue. No end group written: not given here. *: point of attachment. C20 diacid = O=C(O)CCCCCCCCCCCCCCCCCCC(=O)*; C18 diacid = O=C(O)CCCCCCCCCCCCCCCCC(=O)*; γGlu = O=C(O)[C@H](CCC(=O)[*:2])N[*:1]; εLys = N[C@@H](CCCCN[*:1])C(=O)[*:2]; AEEA = NCCOCCOCC(=O)O; Aib = CC(C)(N)C(=O)O

| binder | EC50 CreLuc hGIPR 100% hP (nM) |
| --- | --- |
| Y[Aib]EGTFTSDYSI[Aib]LEKQAQ[Aib]AFVQWLIK([εLys-γGlu-γGlu-γGlu-γGlu-γGlu-C20 diacid])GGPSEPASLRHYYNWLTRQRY-NH2 [Compound 169] | 3.15 |
| YXEGTFTSDYSIXLEKQAQXAFVEWLIKGGPSSGLSLRHYYNWLTRQRY (Aib at 2, 13, 20; K28 side chain: C20DA-gGlu-gGlu-gGlu-gGlu-gGlu-gGlu-eLys; C-terminal NH2) [Compound 107] | 0.99 |
| Y[Aib]EGTFTSDYSI[Aib]LEKQAQ[Aib]AFVQWLIK([εLys-γGlu-γGlu-γGlu-γGlu-γGlu-C18 diacid])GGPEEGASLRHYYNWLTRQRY-NH2 [Compound 143] | 0.67 |
| Y[Aib]EGTFTSDYSI[Aib]LEKQAQ[Aib]AFVEWLLKGGPSSGASLRHYYNWLTRQRY-NH2 (not fully specified (residue 28)) [Compound 109] | 0.64 |
| YXEGTFTSDYSIXLEQQAQXAFVEWLIKGGPSSGASLRHYYNWLTRQRY (Aib at 2, 13, 20; K28 side chain: C20DA-gGlu-gGlu-gGlu-gGlu-Glu-gGlu-eLys; C-terminal NH2) [Compound 124] | 0.89 |
| YXEGTFTSDYSIXLEKQAQXAFVEWLIKGGPSSGASXRHYYNWLTRQRY (Aib at 2, 13, 20; Tle at 37; K28 side chain: C20DA-gGlu-gGlu-gGlu-gGlu-gGlu-gGlu-eLys; C-terminal NH2) [Compound 103] | 1.73 |
| Y[Aib]EGTFTSDYSI[Aib]LEKQAQ[Aib]AFVQWLIK([AEEA-AEEA-γGlu-γGlu-γGlu-γGlu-C18 diacid])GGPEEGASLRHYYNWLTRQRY-NH2 [Compound 146] | 0.73 |
| YXEGTFTSDYSIXLEKAAQXAFVEWLIKGGPSSGASLRHYYNWLTRQRY (Aib at 2, 13, 20; K28 side chain: C20DA-gGlu-gGlu-gGlu-gGlu-gGlu-gGlu-eLys; C-terminal NH2) [Compound 136] | 2.03 |
| Y[Aib]EGTFTSDYSI[Aib]LEKQAQ[Aib]EFVQWLIKGGPSEGASLRHYYNWLTRQRY-NH2 (not fully specified (residue 28)) [Compound 164] | 1.26 |
| YXEGTFTSDYSIXLEKQAQXAFVQWLIKGGPSSGASLRHYYNWLTRQRY (Aib at 2, 13, 20; K28 side chain: C18DA-gGlu-gGlu-gGlu-gGlu-gGlu-OEG-OEG; C-terminal NH2) [Compound 167] | 0.49 |
| YXEGTFTSDYSIXLEKQAQXAFVQWLIKGGPSEGASLRHYYNWLTRQRY (Aib at 2, 13, 20; NMeR at 48; K28 side chain: C20DA-gGlu-gGlu-gGlu-gGlu-gGlu-gGlu-eLys; C-terminal NH2) [Compound 125] | 1.72 |
| Y[Aib]EGTFTSDYSI[Aib]LEKQAQ[Aib]AFVQWLIK([AEEA-AEEA-γGlu-γGlu-γGlu-C18 diacid])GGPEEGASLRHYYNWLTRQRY-NH2 [Compound 144] | 0.79 |
| Y[Aib]EGTFTSDYSI[Aib]LEKQAQ[Aib]AFVQWLIKGGPEEGASLRHYYNWLTRQRY-NH2 (not fully specified (residue 28)) [Compound 108] | 2.14 |
| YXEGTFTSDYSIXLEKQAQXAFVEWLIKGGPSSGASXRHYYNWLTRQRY (Aib at 2, 13, 20, 37; K28 side chain: C20DA-gGlu-gGlu-gGlu-gGlu-gGlu-gGlu-eLys; C-terminal NH2) [Compound 118] | 0.55 |
| YXEGTFTSDYSIXLEKQAQXAFVEWLIKGGPSSGESLRHYYNWLTRQRY (Aib at 2, 13, 20; K28 side chain: C20DA-gGlu-gGlu-gGlu-gGlu-gGlu-gGlu-eLys; C-terminal NH2) [Compound 127] | 0.84 |
| Y[Aib]EGTFTSDYSI[Aib]LEKQAQ[Aib]AFVQWLIK([εLys-γGlu-γGlu-γGlu-Glu-γGlu-γGlu-γGlu-C20 diacid])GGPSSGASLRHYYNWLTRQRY-NH2 [Compound 92] | 1.64 |
| YXEGTFTSDYSIXLEKQAQXAFVEWLIKGGPSSGATLRHYYNWLTRQRY (Aib at 2, 13, 20; K28 side chain: C20DA-gGlu-gGlu-gGlu-gGlu-gGlu-gGlu-eLys; C-terminal NH2) [Compound 91] | 1.72 |
